Would you kindly list log10 of IC50 for each of these compounds?
- System Tested: IDH1 R132H enzyme (Homo sapiens (Human), UniProt O75874, R132H)
- Sequence (O75874 whole entry R132H): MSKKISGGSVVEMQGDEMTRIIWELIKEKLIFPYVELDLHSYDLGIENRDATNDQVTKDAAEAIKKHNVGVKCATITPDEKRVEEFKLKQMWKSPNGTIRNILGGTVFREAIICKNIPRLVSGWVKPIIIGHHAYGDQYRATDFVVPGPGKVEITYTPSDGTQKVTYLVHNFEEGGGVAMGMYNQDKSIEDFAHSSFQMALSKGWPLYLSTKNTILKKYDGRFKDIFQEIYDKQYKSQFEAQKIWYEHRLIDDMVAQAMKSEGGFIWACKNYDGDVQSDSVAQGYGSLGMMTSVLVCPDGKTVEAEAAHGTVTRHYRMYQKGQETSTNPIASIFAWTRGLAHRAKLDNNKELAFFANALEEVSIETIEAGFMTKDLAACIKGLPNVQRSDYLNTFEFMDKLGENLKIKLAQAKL
- Procedure Text: Mutant IDH1 R132H biochemical assay
- Condition Context: NADPH consumption, luminescent readout; 1.5 nM enzyme, 1 μM NADPH, 250 μM α-KG, 30 minutes, 32° C.
Lab note - IC50 converted to log10 from values in µM.

Which log10 of IC50 is listed for COC(=O)c1cc2nc(Cc3ccc(OC(F)(F)F)cc3)n([C@H]3C[C@@H](C)CC(C)(C)C3)c2cc1C (single isomer, unassigned) [Example 2-18-1] ? -0.85

Which value of log10 of IC50 has been reported for CC1(C)CC(n2c(Cc3ccc(OC(F)(F)F)cc3)nc3c(F)c(CCC(=O)O)ccc32)CC(C)(C)C1 in the records? -1.10

Could you tell me which log10 of IC50 is on file for COC(=O)c1cc2nc(Cc3ccc(OC(F)(F)F)cc3)n([C@H]3C[C@@H](C)CC(C)(C)C3)c2cc1C (racemic) [Example 2-18] ? -0.82

Quick check: log10 of IC50 of C[C@@H]1C[C@H](n2c(Cc3ccc(C(F)(F)F)cc3)nc3cc(C#N)ccc32)CC(C)(C)C1 (racemic) ? -0.15

Consider the compound shown here: COC(=O)c1cc2nc(Cc3ccc(OC(F)(F)F)cc3)n([C@H]3C[C@@H](C)CC(C)(C)C3)c2cc1OC(C)C (racemic) [Example 2-20] What is its recorded log10 of IC50? 0.45
